EXPERIMENTAL DETAILS: yeast display, Sf9 membrane polyspecificity reagent, FACS + sequencing; frameworks hold sequencing errors
PROPERTY MEASURED: polyreactivity (PSR sort gate)

# count of solved cases: 4
INSERT INTO results (chain_sequence, result) VALUES
  ('QVQLVESGGGLVQAGGSLRLSCAASGSTFVGYAMGWYRQAPGKERELVADIDSIGGSTYYADSVKRRFTISRDNAKNTVYLQMNSLKPEDTAVYDCAAYQHPGLRTSYEYWGQGTQVTVSS', 'low polyreactivity'),
  ('QVQLVESGGGLVQAGGSLRLSCAASGNIFVEYAMGWYRQAPGKERELVAAITNSGGRTHYADSVKGRFTISRDNAKNTVYLQMNSLKPEDTAVYYCAAPTKYRSRRYYWGQGTQVTVSS', 'high polyreactivity'),
  ('QLQLVESGGGLVQAGGSLRLSCAASGRTFQLYAMGWYRQAPGKERELVAAISYSGGSTYYADSVKGRFTISRDNAKNSVYLQTNSLKPEDTAVYYCAARPRSTRPSYYYRSAGYYWGQGTQVTLSS', 'high polyreactivity'),
  ('QVQLVESGGGLVQAGGSLRLSCAASGSIFEYYPMGWYRQAPGKERELVAAISWSGGSTYYADSVKGRFSISRDNAKNTVYFQMNSLKPEDTAVYYCAARGYWGQGTQVTVSS', 'low polyreactivity');

(Q) Give the measured polyreactivity (PSR sort gate) of `QVQLVESGGGLVQAGGSLRLSCAASGRTFLIYAMGWSRPAPGKERELVAAINFSGGNTYNADSVKGRFTISRDNAKHTVYLQMNSLKPEDTAVYYCAAGVYSFRYDYWGQGTQVTVSS` .
(A) low polyreactivity

* * *

EXPERIMENTAL DETAILS: yeast display, Sf9 membrane polyspecificity reagent, FACS + sequencing; frameworks hold sequencing errors
PROPERTY MEASURED: polyreactivity (PSR sort gate)

Guide cases for polyreactivity (PSR sort gate), answers given:
INSERT INTO results (chain_sequence, property_measured, result) VALUES
  ('QVQLVESGGGLVQAGGSLRLSCAASGRTFSVNAMGWYRQAPGKERELVATISYRGGSTYYADSVKGRFTISRDNAKNTVYLQMNSLKPEDTAVYYCAAGWRYWGRIYRDYDSWGQGTQVTVSS', 'polyreactivity (PSR sort gate)', 'high polyreactivity'),
  ('QVQLVESGGGLVQAGGSLRLSCAASGSIFWRYAMGWYRQAPGKERELVATITSRGGSTYYADSVKGRFTISRDNAKNTVYLQMNSLKQEDTAVYYCAAGWLPKYGYWGQGTQVTVSS', 'polyreactivity (PSR sort gate)', 'low polyreactivity'),
  ('QVQLVESGGGLVQAGGSLRLSCAASGGTFLYYAMGWYRQAPGKETELVAAISRGGSTHYADSVKGRFTISRDNAKNTVYLQMNSLKPEDTAVYYCAVDGGEFSSYGYWGQGTQVTVSS', 'polyreactivity (PSR sort gate)', 'low polyreactivity'),
  ('QVQLVESGGGLVQAGGSLRLSCAASGSIFGYYTMGLYRQAPGKERELVAAITSGGSTNYADSVKGRFTISRDNAKNTVYLQMNSLKPEDTAVYYCAKVSYYPWRYDYWGQGTQVTVSS', 'polyreactivity (PSR sort gate)', 'low polyreactivity');

Turning now to a further sequence:
(Q) Could you tell me which polyreactivity (PSR sort gate) is on file for `QGQLVESGGGLVQAGGSLRLSCAASGGTFEYNTMGWYRQAPGKERELVAAIRSSTVRTYYADSVKGRFTISRDNAKNTVYLQMNSLKPEDTAVYYCAATRYRKYWGQGTQVTVTS` ?
(A) high polyreactivity
